TARGET_UNDER_TEST: human TGFßRII (antigen of the Octet experiments) (human, UniProt P37173 23-166)
Sequence (P37173 23-166): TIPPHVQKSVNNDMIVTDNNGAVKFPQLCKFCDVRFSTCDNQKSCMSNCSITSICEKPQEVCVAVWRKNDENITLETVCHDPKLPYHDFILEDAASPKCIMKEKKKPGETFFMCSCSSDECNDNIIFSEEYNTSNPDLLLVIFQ
MEASUREMENT_DESCRIPTION: BLI (Octet)
Each item that follows carries a reported pKd.
Keep in mind that pKd stands for -log10 of concentration in molar terms.

[
  {
    "BINDER": "H1 L1.22 XENP34585 (antibody, V domains shown) VH: QLQVQESGPGLVKPSETLSLTCTVSGGSISNSYFSWGWIRQPPGKGLEWIGSFYYGEKTYYNPSLKSRATISIDTSKSQFSLKLSSVTAADTAVYYCPRGPTMIRGVIDSWGQGTLVTVSS VL: EIVLTQSPATLSLSPGERATLSCRASQSVRSYLAWYQQKPGQAPRLLIYSASNRATGIPARFSGSGSGTDFTLTISSLEPEDFAVYYCQQRSNWPPTFGQGTKVEIK",
    "OBS_VALUE": 9.11
  },
  {
    "BINDER": "H1 L1.39 XENP34602 (antibody, V domains shown) VH: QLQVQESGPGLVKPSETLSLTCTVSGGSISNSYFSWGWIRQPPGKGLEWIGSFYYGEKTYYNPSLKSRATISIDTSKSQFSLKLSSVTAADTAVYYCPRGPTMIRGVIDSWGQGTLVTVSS VL: EIVLTQSPATLSLSPGERATLSCRASQSVRSYLAWYQQKPGQAPRLLIYDASNRATGIPARFSGSGSGTDFTLTISSLEPEDFAVYYCQQQSNWPPTFGQGTKVEIK",
    "OBS_VALUE": 7.68
  },
  {
    "BINDER": "H1 L1.41 XENP34604 (antibody, V domains shown) VH: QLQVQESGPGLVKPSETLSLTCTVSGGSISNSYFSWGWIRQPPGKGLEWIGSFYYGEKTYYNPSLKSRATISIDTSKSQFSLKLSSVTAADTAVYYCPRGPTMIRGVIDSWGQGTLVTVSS VL: EIVLTQSPATLSLSPGERATLSCRASQSVRSYLAWYQQKPGQAPRLLIYDASNRATGIPARFSGSGSGTDFTLTISSLEPEDFAVYYCQQRANWPPTFGQGTKVEIK",
    "OBS_VALUE": 8.60
  }
]

Check the records and state pKd for H1 L1.33 XENP34596 (antibody, V domains shown) VH: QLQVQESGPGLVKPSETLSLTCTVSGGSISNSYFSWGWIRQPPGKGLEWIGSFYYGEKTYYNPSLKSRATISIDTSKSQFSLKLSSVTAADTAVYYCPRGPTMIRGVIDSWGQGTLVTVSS VL: EIVLTQSPATLSLSPGERATLSCRASQSVRSYLAWYQQKPGQAPRLLIYDASNRATGIPARFSGSGSGTDFTLTISSLESEDFAVYYCQQRSNWPPTFGQGTKVEIK
9.06

Check the records and state pKd for H1 L1.20 XENP34583 (antibody, V domains shown) VH: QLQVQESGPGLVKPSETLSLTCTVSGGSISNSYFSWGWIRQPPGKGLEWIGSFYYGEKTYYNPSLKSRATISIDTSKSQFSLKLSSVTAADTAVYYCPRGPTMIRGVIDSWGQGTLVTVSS VL: EIVLTQSPATLSLSPGERATLSCRASQSVRSYLAWYQQKPGQAPRLLIYEASNRATGIPARFSGSGSGTDFTLTISSLEPEDFAVYYCQQRSNWPPTFGQGTKVEIK
8.65

Check the records and state pKd for H1 L1.44 XENP34607 (antibody, V domains shown) VH: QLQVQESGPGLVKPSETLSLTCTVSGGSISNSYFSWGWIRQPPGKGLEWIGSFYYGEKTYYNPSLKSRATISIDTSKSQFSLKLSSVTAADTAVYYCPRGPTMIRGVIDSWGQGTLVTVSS VL: EIVLTQSPATLSLSPGERATLSCRASQSVRSYLAWYQQKPGQAPRLLIYDASNRATGIPARFSGSGSGTDFTLTISSLEPEDFAVYYCQQRTNWPPTFGQGTKVEIK
8.69

Check the records and state pKd for H1 L1.43 XENP34606 (antibody, V domains shown) VH: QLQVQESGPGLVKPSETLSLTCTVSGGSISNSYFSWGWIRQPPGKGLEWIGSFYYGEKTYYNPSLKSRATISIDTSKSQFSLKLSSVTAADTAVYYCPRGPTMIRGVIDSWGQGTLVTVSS VL: EIVLTQSPATLSLSPGERATLSCRASQSVRSYLAWYQQKPGQAPRLLIYDASNRATGIPARFSGSGSGTDFTLTISSLEPEDFAVYYCQQRNNWPPTFGQGTKVEIK
8.97
